Test: LPS binding assay with NBD-labeled peptides
Settings: NBD-labeled peptide affinity to LPS
Procedure: NBD-labeled peptides (50 μl, 2 μM, PBS^−/− 2% DMSO) were added to different concentrations of LPS (50 μl PBS^−/−) in a opaque black 96 well plate. After 10 minutes of incubation at room temperature, the fluorescence was measured using an excitation of 467 nm and emission of 530 nm. The data were plotted and Kd and Bmax values obtained using NLLSQ analysis.
No end group written: not given here.
value.kind: Kd (µM)
Use µM as the unit, but write only the number.

Consider the worked cases shown below.
KKALALALALALAKK-NH2 [K2(AL)5AK2, KKALALALALALAKK] | 2.7
KKALALALALALALALALKK [4D-K2(AL)8K2] | 15.6

// lookup Kd for ALALALALALALALALALKK-NH2 [(AL)9K2]
4.4

What do you get for KALALALKALALKALALALK-NH2 [K(AL)3K(AL)2K(AL)3K] ?
9.6

###

Test system: S. aureus 6538P
Format: cell-based
Conditions: 100% inhibition of growth after 18-20 h
No end group written: not given here.
value.kind: MIC S. aureus 6538P

Consider the worked cases shown below.
ALALALALALALALALALKK [4D-(AL)9K2] | >100 µM
LALALALALALALALALALK-NH2 [L(AL)9K] | >100 µM
KKALALALALALALALALKK [4D-K2(AL)8K2] | 100 µM

// switching to the query substance
// lookup MIC S. aureus 6538P for ALALALALALALALK-NH2 [(AL)7K]
>100 µM
